# Tested on: PPARg:RXRa DBDmut IVT, anti-RXR (DBD mutation: RXRa K156A/R161A, NR concentration 270 nM, RXRa partner concentration 90 nM)
# protocol_notes: PBM binding z-score (relative to random genomic background probes); higher = stronger binding; sequences stand for … in GC…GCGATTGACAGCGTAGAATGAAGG
Each record's class is read off its PBM binding z-score using these ranges: class 1: < 2; class 2: ≥ 2 and < 4; class 3: ≥ 4

In [3]: df
Out[3]:
                  biopolymer_sequence  category
0  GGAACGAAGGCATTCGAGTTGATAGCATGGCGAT   class 1
1  AGAACGAGGGCACGCTAAGTTGATAGCAGAGTAG   class 3
2  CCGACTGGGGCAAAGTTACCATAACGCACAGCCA   class 2
3  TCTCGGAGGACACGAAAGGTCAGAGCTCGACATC   class 1
4  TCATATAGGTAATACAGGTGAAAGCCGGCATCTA   class 2
5  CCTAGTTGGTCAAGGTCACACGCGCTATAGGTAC   class 2
6  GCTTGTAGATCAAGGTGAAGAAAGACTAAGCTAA   class 1
7  CCGACTGGGCCATAAGGTTACCATAAGCCAGCCC   class 1
8  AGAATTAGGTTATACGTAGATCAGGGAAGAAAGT   class 3
